assay_system: Histone-lysine N-methyltransferase, H3 lysine-79 specific (Homo sapiens)
test_method_notes: Inhibition of DOT1L (unknown origin) using [methyl-3H]SAM and biotinylated nucleosome PRC2 and H3K27Me3 activator peptide up to 80 uM by [3H]methyl group incorporation assay
Activity calls are given as the source filed them. The calls are words filed in the database; no cut-off is given here.
quantity_kind: inhibition

COc1ccc(Cl)cc1C(=O)NCCc1ccc(C(C)CC(=O)O)cc1 (stereo unspecified)	inactive
COc1ccc(Cl)cc1CNCCc1ccc(CCC(=O)O)cc1	inactive
COc1ccc(Cl)cc1C(=O)N(C)CCc1ccc(CCC(=O)O)cc1	inactive
COc1ccc(Cl)cc1C(=O)NCCc1ccccc1	inactive
COc1ccc(Cl)cc1C(=O)NCCc1ccc(CCC(=O)O)cc1	inactive

Proceed to the following item.
I have this molecule here, COc1ccc(Cl)cc1C(=O)NCCc1ccc(CCC(N)=O)cc1 , and I need its recorded inhibition.
inactive

---

assay_system: UniProt:Q15910
test_method_notes: Inhibition of EZH2 (unknown origin) using [methyl-3H]SAM and biotinylated nucleosome PRC2 and H3K27Me3 activator peptide up to 80 uM by [3H]methyl group incorporation assay
Calls of active or inactive are those of the source. The calls are words filed in the database; no cut-off is given here.
quantity_kind: inhibition

Known results for molecules:
COc1ccc(Cl)cc1C(=O)NCCc1ccc(CCC(=O)O)cc1	inactive
O=C(O)CCc1ccc(CCNC(=O)c2cccnc2)cc1	inactive
COc1ccc(Cl)cc1C(=O)NCCc1ccc(CCCO)cc1	inactive
COc1ccc(Cl)cc1C(=O)NCCc1ccc(CCC(N)=O)cc1	inactive
O=C(O)CCc1ccc(CCNC(=O)c2cc(Cl)ccc2F)cc1	inactive
COc1ccc(Cl)cc1C(=O)N(C)CCc1ccc(CCC(=O)O)cc1	inactive
COc1ccc(Cl)cc1C(=O)NCCc1ccc(CC(=O)O)cc1	inactive
COc1ccc(Cl)cc1C(=O)NCCc1ccc(CC(C)C(=O)O)cc1 (stereo not given)	inactive
O=C(O)CCc1ccc(CCNC(=O)c2cc(C(F)(F)F)ccc2Cl)cc1	inactive
COc1ccc(Cl)cc1C(=O)NCCc1cccc(CCC(=O)O)c1	inactive

Hi team, please reply with inhibition for each item in this list.
1. COc1ccc(Cl)cc1C(=O)NCCc1ccc(C(C)CC(=O)O)cc1 (stereo not given)
2. O=C(O)CCc1ccc(CCNC(=O)c2ccccc2Br)cc1
3. COc1ccc(Cl)cc1C(=O)NCCc1ccc(O)cc1
4. COc1ccc(Cl)cc1C(=O)NCCc1ccc(/C=C/C(=O)O)cc1
5. O=C(O)CCc1ccc(CCNC(=O)c2ccccc2F)cc1
6. COc1ccc(Cl)cc1C(=O)Nc1ccc(CCC(=O)O)cc1
7. COc1ccc(Cl)cc1C(=O)NCCc1ccc(C(=O)O)cc1

1: inactive; 2: inactive; 3: inactive; 4: inactive; 5: inactive; 6: inactive; 7: inactive

Hi team, please reply with inhibition for each item in this list.
1. COc1ccc(Cl)cc1C(=O)NCCc1ccc(CCC(=O)N2CCOCC2)cc1
2. COc1ccc(Cl)cc1CNCCc1ccc(CCC(=O)O)cc1
3. CNC(=O)CCc1ccc(CCNC(=O)c2cc(Cl)ccc2OC)cc1
4. COc1ccc(Cl)cc1C(=O)NCCc1ccc(OCC(=O)O)cc1
5. O=C(O)CCc1ccc(CCNC(=O)c2cccc(Cl)c2)cc1
6. COc1ccc(Cl)cc1NC(=O)CCc1ccc(CCC(=O)O)cc1
7. O=C(O)CCc1ccc(CCNC(=O)c2ccc([N+](=O)[O-])cc2)cc1

inactive
inactive
inactive
inactive
inactive
inactive
inactive

---

assay_system: DNA (cytosine-5)-methyltransferase 1 (Homo sapiens) (UniProt P26358)
Sequence (P26358 whole entry): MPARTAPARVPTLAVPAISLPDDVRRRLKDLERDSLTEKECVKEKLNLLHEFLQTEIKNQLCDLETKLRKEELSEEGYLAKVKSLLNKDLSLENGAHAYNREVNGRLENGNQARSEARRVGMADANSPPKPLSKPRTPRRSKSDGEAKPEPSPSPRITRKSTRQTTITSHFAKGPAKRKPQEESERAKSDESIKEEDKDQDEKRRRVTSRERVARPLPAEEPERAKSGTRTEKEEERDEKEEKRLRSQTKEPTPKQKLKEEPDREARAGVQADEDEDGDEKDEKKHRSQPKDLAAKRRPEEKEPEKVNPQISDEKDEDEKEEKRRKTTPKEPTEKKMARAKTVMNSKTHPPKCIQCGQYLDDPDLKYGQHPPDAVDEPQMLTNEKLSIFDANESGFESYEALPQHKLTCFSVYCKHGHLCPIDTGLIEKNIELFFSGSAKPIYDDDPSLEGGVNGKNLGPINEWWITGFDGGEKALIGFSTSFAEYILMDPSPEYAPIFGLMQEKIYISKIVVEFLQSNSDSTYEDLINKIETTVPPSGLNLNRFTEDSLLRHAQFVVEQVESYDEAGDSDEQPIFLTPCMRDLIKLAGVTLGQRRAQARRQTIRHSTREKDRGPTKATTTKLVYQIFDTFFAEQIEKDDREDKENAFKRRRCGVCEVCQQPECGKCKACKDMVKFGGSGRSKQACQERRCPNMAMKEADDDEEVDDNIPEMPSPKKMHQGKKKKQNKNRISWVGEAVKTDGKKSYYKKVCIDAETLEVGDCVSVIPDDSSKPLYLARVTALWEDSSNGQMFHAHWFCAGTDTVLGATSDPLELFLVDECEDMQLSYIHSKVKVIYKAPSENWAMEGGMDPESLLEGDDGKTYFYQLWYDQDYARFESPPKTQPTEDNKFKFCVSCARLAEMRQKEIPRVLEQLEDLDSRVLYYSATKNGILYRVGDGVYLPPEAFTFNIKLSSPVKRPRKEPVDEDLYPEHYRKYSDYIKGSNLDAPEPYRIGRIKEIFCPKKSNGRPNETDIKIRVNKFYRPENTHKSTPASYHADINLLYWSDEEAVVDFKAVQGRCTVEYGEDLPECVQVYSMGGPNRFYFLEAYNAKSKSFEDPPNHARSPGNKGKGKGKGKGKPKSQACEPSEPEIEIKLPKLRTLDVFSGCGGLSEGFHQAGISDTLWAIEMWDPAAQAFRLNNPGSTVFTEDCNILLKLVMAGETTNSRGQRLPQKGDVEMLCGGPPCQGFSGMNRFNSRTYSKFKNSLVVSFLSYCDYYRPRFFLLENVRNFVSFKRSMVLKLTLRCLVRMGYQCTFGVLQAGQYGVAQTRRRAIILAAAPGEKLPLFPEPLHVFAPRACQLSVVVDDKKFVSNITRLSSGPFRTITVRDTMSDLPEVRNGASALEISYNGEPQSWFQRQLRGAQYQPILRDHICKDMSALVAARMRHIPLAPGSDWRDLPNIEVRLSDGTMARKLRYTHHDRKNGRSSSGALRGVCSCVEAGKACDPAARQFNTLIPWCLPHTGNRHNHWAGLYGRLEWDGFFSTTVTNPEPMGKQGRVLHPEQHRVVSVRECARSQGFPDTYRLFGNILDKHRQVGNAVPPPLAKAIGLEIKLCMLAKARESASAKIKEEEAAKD
test_method_notes: Inhibition of human DNMT1 using [methyl-3H]SAM and biotinylated hemimethylated DNA duplex at 100 uM by [3H]methyl group incorporation assay
Provide the recorded inhibition for the entries that follow.

COc1ccc(Cl)cc1C(=O)NCCc1ccc(C(C)CC(=O)O)cc1 (centres undefined)	< 20%
O=C(O)CCc1ccc(CCNC(=O)c2ccccc2Br)cc1	< 20%
O=C(O)CCc1ccc(CCNC(=O)c2cccnc2)cc1	< 20%

Hi team, please reply with inhibition for each item in this list.
1. COc1ccc(Cl)cc1C(=O)NCCc1ccc(CCC(N)=O)cc1
2. CNC(=O)CCc1ccc(CCNC(=O)c2cc(Cl)ccc2OC)cc1
3. COc1ccc(Cl)cc1C(=O)NCc1ccc(CCC(=O)O)cc1
4. COc1ccc(Cl)cc1C(=O)N(C)CCc1ccc(CCC(=O)O)cc1
5. O=C(O)CCc1ccc(CCNC(=O)c2ccc([N+](=O)[O-])cc2)cc1
6. COc1ccc(Cl)cc1C(=O)NCCc1ccc(C(=O)O)cc1
7. O=C(O)CCc1ccc(CCNC(=O)c2ccccc2F)cc1

1. < 20%
2. < 20%
3. < 20%
4. < 20%
5. 14%
6. < 20%
7. < 20%

---

assay_system: DNA (cytosine-5)-methyltransferase 3A (Homo sapiens)
Sequence (Q9Y6K1 whole entry, looked up, the tested form may be a part): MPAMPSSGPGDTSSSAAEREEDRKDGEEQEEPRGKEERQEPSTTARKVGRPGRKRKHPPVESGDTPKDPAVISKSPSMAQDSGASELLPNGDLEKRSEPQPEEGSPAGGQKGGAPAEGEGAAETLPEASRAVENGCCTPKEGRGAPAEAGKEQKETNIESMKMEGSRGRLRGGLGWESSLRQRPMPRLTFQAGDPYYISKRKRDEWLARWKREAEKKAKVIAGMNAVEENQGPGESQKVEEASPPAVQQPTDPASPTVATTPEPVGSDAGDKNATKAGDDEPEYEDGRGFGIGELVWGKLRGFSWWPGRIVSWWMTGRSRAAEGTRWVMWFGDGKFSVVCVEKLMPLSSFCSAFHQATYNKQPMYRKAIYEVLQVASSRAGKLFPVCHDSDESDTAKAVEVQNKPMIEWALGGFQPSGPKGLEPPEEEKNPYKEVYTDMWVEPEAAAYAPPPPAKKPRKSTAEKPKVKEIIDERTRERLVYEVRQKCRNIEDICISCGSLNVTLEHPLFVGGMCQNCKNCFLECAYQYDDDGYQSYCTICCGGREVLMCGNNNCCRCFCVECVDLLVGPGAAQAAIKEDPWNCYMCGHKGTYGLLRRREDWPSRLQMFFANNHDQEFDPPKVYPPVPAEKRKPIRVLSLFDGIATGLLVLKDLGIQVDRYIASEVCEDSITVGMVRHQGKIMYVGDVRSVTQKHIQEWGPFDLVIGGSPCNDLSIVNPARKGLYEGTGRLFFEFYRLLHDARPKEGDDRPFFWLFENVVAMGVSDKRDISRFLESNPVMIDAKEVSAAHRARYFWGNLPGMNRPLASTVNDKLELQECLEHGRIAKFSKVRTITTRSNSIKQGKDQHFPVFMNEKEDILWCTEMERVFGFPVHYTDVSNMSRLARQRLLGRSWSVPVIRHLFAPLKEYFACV
test_method_notes: Inhibition of human DNMT3A catalytic domain (623 to 912 amino acids) after 1 hr by fluorescence assay
quantity_kind: EC50 (µM)
Give bare numbers, in µM.

I have this compound here, COc1ccc(Cl)cc1C(=O)NCCc1ccc(O)cc1 , and I need its recorded EC50.
36

---

Tested on: MDA-MB-231
test_method_notes: Toxicity against human MDA-MB-231 cells
Assay type: cell-based
quantity_kind: Activity

Known results for molecules:
COc1ccc(Cl)cc1C(=O)NCCc1ccc(O)cc1	Toxic
COc1ccc(Cl)cc1C(=O)N[C@@H](Cc1ccc(OCC(=O)O)cc1)C(=O)O	Non-toxic
O=C(O)CCc1ccc(CCNC(=O)c2ccc([N+](=O)[O-])cc2)cc1	Toxic
COc1ccc(Cl)cc1C(=O)NCCc1ccc(OCC(=O)O)cc1	Non-toxic

Proceed to the following item.
I have this molecule here, O=C(O)CCc1ccc(CCNC(=O)c2cc(C(F)(F)F)ccc2Cl)cc1 , and I need its recorded Activity.
Toxic

---

assay_system: Histone-lysine N-methyltransferase EZH2 (Homo sapiens) (UniProt Q15910)
Sequence (Q15910 whole entry, looked up): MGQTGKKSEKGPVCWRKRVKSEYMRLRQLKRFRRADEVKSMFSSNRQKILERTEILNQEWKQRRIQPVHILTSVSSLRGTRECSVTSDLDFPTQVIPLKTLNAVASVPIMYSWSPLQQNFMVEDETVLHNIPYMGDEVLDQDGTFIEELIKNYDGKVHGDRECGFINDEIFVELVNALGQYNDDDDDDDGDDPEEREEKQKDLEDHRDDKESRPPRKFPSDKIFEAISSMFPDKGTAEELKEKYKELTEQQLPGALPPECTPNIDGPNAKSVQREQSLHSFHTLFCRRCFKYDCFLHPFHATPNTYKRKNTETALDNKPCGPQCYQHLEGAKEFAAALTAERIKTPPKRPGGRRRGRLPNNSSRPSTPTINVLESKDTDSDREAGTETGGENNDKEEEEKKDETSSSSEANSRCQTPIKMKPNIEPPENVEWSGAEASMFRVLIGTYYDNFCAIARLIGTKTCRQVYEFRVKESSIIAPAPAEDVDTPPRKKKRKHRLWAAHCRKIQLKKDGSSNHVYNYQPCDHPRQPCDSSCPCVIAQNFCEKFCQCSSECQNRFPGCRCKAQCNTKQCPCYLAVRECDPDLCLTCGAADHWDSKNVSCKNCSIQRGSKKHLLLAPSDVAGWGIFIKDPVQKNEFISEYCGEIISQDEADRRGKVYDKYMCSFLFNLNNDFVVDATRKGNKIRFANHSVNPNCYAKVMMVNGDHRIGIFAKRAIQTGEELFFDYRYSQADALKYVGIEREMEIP
test_method_notes: Inhibition of EZH2 (unknown origin) using [methyl-3H]SAM and biotinylated nucleosome PRC2 and H3K27Me3 activator peptide up to 80 uM by [3H]methyl group incorporation assay
The source made the active and inactive calls. The rule behind the calls is not given here.
quantity_kind: inhibition

Known results for compounds:
COc1ccc(Cl)cc1C(=O)NCc1ccc(CCC(=O)O)cc1	inactive
COc1ccc(Cl)cc1C(=O)N[C@@H](Cc1ccc(OCC(=O)O)cc1)C(=O)O	inactive
CCc1ccc(CCNC(=O)c2cc(Cl)ccc2OC)cc1	inactive
COc1ccc(Cl)cc1C(=O)NCCc1ccc(CCC(=O)N(C)C)cc1	inactive

Hi team, please reply with inhibition for each item in this list.
1. COc1cccc(C(=O)NCCc2ccc(CCC(=O)O)cc2)c1
2. COc1ccc(Cl)cc1C(=O)NCCc1ccccc1

1: inactive; 2: inactive

---

assay_system: UniProt:P26358
test_method_notes: Inhibition of human DNMT1 using [methyl-3H]SAM and biotinylated hemimethylated DNA duplex at 100 uM by [3H]methyl group incorporation assay
quantity_kind: inhibition

COc1ccc(Cl)cc1C(=O)NCCc1ccc(O)cc1	16%
COc1ccc(Cl)cc1C(=O)NCCc1ccc(OCC(=O)O)cc1	15%
COc1ccc(Cl)cc1CNCCc1ccc(CCC(=O)O)cc1	< 20%

Hi team, please reply with inhibition for each item in this list.
1. COc1ccc(Cl)cc1C(=O)NCCc1ccc(CCCO)cc1
2. COc1ccc(Cl)cc1C(=O)NCCc1ccc(CCC(=O)N(C)C)cc1
3. COc1ccc(Cl)cc1NC(=O)CCc1ccc(CCC(=O)O)cc1
4. COc1cccc(C(=O)NCCc2ccc(CCC(=O)O)cc2)c1

1. < 20%
2. < 20%
3. < 20%
4. < 20%

Hi team, please reply with inhibition for each item in this list.
1. COc1ccc(Cl)cc1C(=O)NCCc1ccc(CCC(=O)N2CCOCC2)cc1
2. COc1ccc(Cl)cc1C(=O)NCCc1ccc(CC(C)C(=O)O)cc1 (centres undefined)
3. COc1ccc(Cl)cc1C(=O)Nc1ccc(CCC(=O)O)cc1
4. COc1ccc(Cl)cc1C(=O)NCCc1ccc(CCC(=O)O)cc1
5. COc1ccc(Cl)cc1C(=O)NCCc1ccc(/C=C/C(=O)O)cc1

1: < 20%; 2: < 20%; 3: < 20%; 4: 2.9%; 5: < 20%

Hi team, please reply with inhibition for each item in this list.
1. COc1ccc(Cl)cc1C(=O)NCCc1ccccc1
2. O=C(O)CCc1ccc(CCNC(=O)c2cc(C(F)(F)F)ccc2Cl)cc1

1. < 20%
2. < 20%

The reported numbers originate from ChEMBL document CHEMBL3132825.
